I'd appreciate it if you could supply Kd values for the items below.
# measured.on: T1, Human recombinant CD5L protein (Sino Biological, Catalog Number 10791-H08H) (human, UniProt O43866 20-347)
# T1 construct: Bought protein; also called human CD5L; CD5L-His; not shown: 6xHIS-tag
# T1 sequence (looked up): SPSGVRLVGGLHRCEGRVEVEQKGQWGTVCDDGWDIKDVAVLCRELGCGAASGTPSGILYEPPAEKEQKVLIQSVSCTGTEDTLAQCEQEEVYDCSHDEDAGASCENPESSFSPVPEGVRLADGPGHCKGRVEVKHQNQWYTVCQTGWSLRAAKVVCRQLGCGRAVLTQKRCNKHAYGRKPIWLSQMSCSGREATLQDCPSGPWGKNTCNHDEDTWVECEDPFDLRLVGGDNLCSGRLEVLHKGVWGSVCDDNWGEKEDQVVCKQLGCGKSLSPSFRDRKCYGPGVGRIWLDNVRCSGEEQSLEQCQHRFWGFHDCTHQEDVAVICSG
# method.description: BLI (Octet RED96), antibody on protein A biosensors, CD5L 0.1-200 nM in solution, 1:1 fit
Answers are plain numbers, in nM.

// worked examples, Kd included
R-34 (antibody, V domains shown) VH: QSVKESGGRLVTPGTPLTLTCTVSGFSLSSSGMSWVRQAPGKGLEWIGLTFPSGSASYASWAKGRFTVSRTSTTVDLNLTSPTTEDTATYFCAHVGATTGRDFWGQGTLVTVSS VL: ELVMTQTASSVSAAVGGTVTISCQSSQNIYNNRWSWYQQKPGQPPKLLIYQASTLASGVPSRFKGSGSGTQFTLTISGVQCDDAATYYCAGGYSGTIFTFGGGTELEIK : 1.35
R-18 (antibody, V domains shown) VH: QSVKESGGRLVTPGTPLTLTCTVSGFSLSNYAMSWVRQAPGKGLEWIGIIVTSGSTYYASWAKGRFTISKTSTTVDLKMTSLTAADTATYFCARHAYSIGSSLWGQGTLVTISS VL: ELDLTQTPPSASEPVGGTVTIKCQASESISVRLAWYQQKPGQPPKLLIYKASNLPSGVPSRFKGSGSGTEFTLTISDLECDDAATYYCRNYYDISNNGAGFGGGTEVEIK : 1.56
R-45 (antibody, V domains shown) VH: QSVKESGGRLVTPGTPLTLTCTVSGFSINDFHMCWVRQAPGKGLEYIGMIGTGGSAYYATWTKGRFTISRTSTTVDLKITSPTTEDTATYFCARRDWSDGGYSLLWGQGTLVTVSS VL: ELDLTQTPASVSEPVGGTVTIKCQASQSIRTYLNWYQQKPGQPPKLLIYSASTLASGIPSRFKGSGSGTQFTLTISDLECADAATYYCQQGYYWSDVENTFGGGTEVEIN : 2.97

Please look at the following binder next.
Give its Kd value. Item: R-3 (antibody, V domains shown) VH: QSLKESGGRLVKPDETLTITCTASGIDLTSGTVGWFRQAPGKGLEWIGIIRGSGSTYYATWAKGRFTISKTSTTVDLKLTSPTTEDTATYLCARAFPGYNTFFNFWGQGTLVTISS VL: ELDLTQTPSSVEAAVGGTVTIKCQASESIGNALAWYQQKPGQPPKLLIWKASNLESGVPPRFKGSGSGTEFTLTISDLECADAATYYCQRYYFNGVSVEIVFGGGTEVVVKG
2.18
